tested on: SARS2 M^pro (Severe acute respiratory syndrome coronavirus 2, UniProt P0DTD1, P3395H)
Assay type: biochemical, SARS-CoV-2

| molecule | output unit | % inhibition (20 µM) biochemical |
| --- | --- | --- |
| Cc1cc(CNC(=O)CCl)cc(C)c1O | % | 45 |
| O=C1NC(=O)C(=Cc2cc(O)ccc2Br)C(=O)N1 | % | 21 |
| CCN(CC)c1ccc(/C=N/n2c(S)nnc2-c2cccnc2)c(O)c1 | % | 9 |
| COCCCNC(=O)/C(C#N)=C/c1cc(C)n(-c2ccc(F)cc2)c1C | % | 5 |
| O=C(c1cccnc1)N1CCN(c2ccc(Cl)c(Cl)c2)CC1 | % | 47 |
| CCOCCCNC(=O)c1ccc(Cl)c([N+](=O)[O-])c1 [MWAC-0001781, CCOCCCNC(=O)c1ccc(Cl)c(c1)[N+](=O)[O-]] | % | 0 |
| COc1ccc(C(=O)NNC(=O)Cc2ccc(-c3ccccc3)cc2)cc1 | % | 0.595 |
| N#C/C(=C\c1c[nH]c2ccccc12)C(=O)NC1CC1 [MWAC-0001828, O=C(NC1CC1)\C(=C\c2c[nH]c3ccccc23)\C#N] | % | 11 |
| CCCN1C(=O)C(O)(CC(=O)c2ccccc2OC)c2cc(Br)ccc21 (stereo not shown) | % | 2.64 |
| COc1ccccc1Nc1nc(-c2ccccn2)cs1 | % | 0 |
| CN1C(=O)C(=Cc2cc(O)ccc2Br)C(=O)N(C)C1=O | % | 5.42 |
| Cc1cccc(NC(=O)COc2ccc(Br)cc2/C=N/O)c1 | % | 0.745 |
| CCOc1ccc(C2NC(=O)c3[nH]nc(-c4cccc(OC)c4)c32)cc1 (stereo not shown) | % | 18 |
| O=C(CN1C(=O)C(=O)N(Cc2ccccc2)C1=O)Nc1cc(Cl)cc(Cl)c1 | % | 0.75 |
| CCc1c(C)sc(NC(=O)CCc2ccccc2)c1C(N)=O | % | 4 |
| CCCCOC(=O)c1c(C)oc2ccc(NS(=O)(=O)c3ccc(OC)cc3)cc12 | % | 11 |
